B1: library; numbered along this chain (parent)
chain: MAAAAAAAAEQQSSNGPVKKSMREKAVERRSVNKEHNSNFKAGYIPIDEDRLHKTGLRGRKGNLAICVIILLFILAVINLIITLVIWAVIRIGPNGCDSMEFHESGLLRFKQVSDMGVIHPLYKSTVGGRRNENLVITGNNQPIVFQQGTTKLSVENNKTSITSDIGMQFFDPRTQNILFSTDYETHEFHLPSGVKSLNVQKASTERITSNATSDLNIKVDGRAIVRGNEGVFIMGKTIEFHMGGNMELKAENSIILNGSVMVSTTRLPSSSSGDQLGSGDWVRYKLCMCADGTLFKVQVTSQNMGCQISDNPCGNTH

# Variants of: B1
# assay_name: SGCB cell-surface expression functional score (HA stain, bin4 vs bin1, normalised to synonymous) (log10 ratio); higher = more cell-surface SGCB (functional)
measurement_kind: SGCB cell-surface expression functional score (log10)

R60V | -0.09
S105T | -0.09
R207H | -0.5
R223M | 0.82
N140K | -0.48
P121F | 0.33
K54R | 0.2
I45E | 0.23
A6V | 0.22
T151W | -1.19
S197T | -0.2
G231K | -1.12
V155N | -1.38
D50N | 0.29
L153D | -1.44
A42S | 0.1
S272T | -0.52
A76Y | 0.25
T317I | 0.05
P173M | 0
I90Q | -0.71
N39R | -0.29
G167A | -0.48
V136R | -0.57
F40E | 0.01
N177H | 0.09
L179G | -0.53
L216G | -1.5
D292I | 0.06
R30A | 0.22
R23W | -0.61
S197N | -0.61
T163I | 0.32
S125P | -0.99
T266P | 0.54
Q112I | 0.03
I47W | -0.62
G306A | -0.83
E248I | 0.78
L108A | -0.07
M235L | 0.66
G139A | -0.13
W282F | 0.36
G228L | -1.15
D98E | -0.21
V200P | -1.16
R207F | -1.57
G106I | -1.82
R23P | 0.31
S260I | -0.71
E252L | 0.88
F241I | 0.2
W87P | -0.55
R29S | 0.25
L295G | -0.87
D311Q | -0.87
L135W | -0.88
T138A | -0.51
D165R | 0.2
F233H | 0.36
T175C | -0.43
V89C | 0
Q12I | -0.43
K54W | 0.69
E185F | -0.44
I309E | -0.14
D48A | 0.6
Q299K | 0.21
